Numbers sourced from ChEMBL document CHEMBL1157062.

- Protocol Description: Cytotoxicity against human NCI-H460 cells assessed as cell viability at 55 uM after 48 hrs by MTT assay
- Format: cell-based
- Conditions: read-out: Activity
Measure: viability at 48 h, 55 µM (%)
Write it as a number; the unit % goes unstated.

Determine from records and report viability at 48 h, 55 µM for `CCCCCCCCC[C@@]1(CO)CC[C@@H](C)C(=O)O[C@@](CO)(CCCCCCCCC)CC[C@@H](C)C(=O)O1`
10

###

- Protocol Description: Cytotoxicity against human NCI-H460 cells assessed as cell viability at 9 uM after 48 hrs by MTT assay
- Assay type: cell-based
- Conditions: read-out: Activity
Measure: viability at 48 h, 9 µM (%)
Write it as a number; the unit % goes unstated.

Determine from records and report viability at 48 h, 9 µM for `CCCCCCCCC[C@@]1(CO)CC[C@@H](C)C(=O)O[C@@](CO)(CCCCCCCCC)CC[C@@H](C)C(=O)O1`
110
